# study target: DYRK2 (Homo sapiens)
# Sequence (Q92630 1-601): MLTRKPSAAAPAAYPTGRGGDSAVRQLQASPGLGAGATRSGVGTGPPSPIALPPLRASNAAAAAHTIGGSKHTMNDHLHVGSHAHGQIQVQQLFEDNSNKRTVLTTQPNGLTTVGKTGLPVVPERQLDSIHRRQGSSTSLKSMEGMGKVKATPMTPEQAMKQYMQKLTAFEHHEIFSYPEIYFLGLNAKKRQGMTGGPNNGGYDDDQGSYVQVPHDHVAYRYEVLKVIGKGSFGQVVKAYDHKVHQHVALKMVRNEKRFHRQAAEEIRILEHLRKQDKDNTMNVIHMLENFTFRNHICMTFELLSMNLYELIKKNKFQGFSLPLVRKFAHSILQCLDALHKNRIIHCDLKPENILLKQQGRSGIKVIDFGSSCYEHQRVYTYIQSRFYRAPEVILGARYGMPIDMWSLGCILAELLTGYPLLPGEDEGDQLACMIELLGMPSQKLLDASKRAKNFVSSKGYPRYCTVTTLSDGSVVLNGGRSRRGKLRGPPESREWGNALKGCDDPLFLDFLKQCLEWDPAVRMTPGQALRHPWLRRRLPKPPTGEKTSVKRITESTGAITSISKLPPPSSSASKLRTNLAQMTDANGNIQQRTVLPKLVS
assay metric: IC50

CC#CC1N(c2nc3c4c(ccc3s2)OCC4)C(=O)NC12CCCC2 (single isomer, unassigned); > 1000 nM
CC#CC1N(c2nc3c4c(ccc3s2)OCCO4)C(=O)NC12CC2 (single isomer, unassigned); 100 to 1000 nM
CC#C[C@@H]1C[C@@H](C)NC(=O)N1c1nc2c3c(ccc2s1)OCC3; > 1000 nM
CC#CC1N(c2nc3c4c(ccc3s2)OCC4)C(=O)NC12CCC2 (single isomer, unassigned) [Example 21]; > 1000 nM

According to the records, this molecule CC#CC1C[C@H](C)NC(=O)N1c1nc2c3c(ccc2s1)OCC3 (stereo in doubt) [Example 16] displays IC50 of > 1000 nM

###

pIC50: −log10 of the molar value.
List of pIC50 tested on DYRK1A (Homo sapiens, UniProt Q13627).

In the examples that follow, each entry is paired with its recorded pIC50.
CC#CC1N(c2nc3c4c(ccc3s2)OCC4)C(=O)NC12CC2 (single isomer, unassigned) [Example 19]; < 6.00
CC#CC1CCNC(=O)N1c1nc2c3c(ccc2s1)OCCO3 (racemic) [Example 1]; > 8.00
CC#C[C@@H]1C[C@@H](C)NC(=O)N1c1nc2c3c(ccc2s1)OCC3 [Example 15]; 7.00 to 8.00
CC#CC1N(c2nc3c4c(ccc3s2)OCC4)C(=O)NC12CC2 (single isomer, unassigned) [Example 18]; > 8.00
CC#CC1N(c2nc3c4c(ccc3s2)OCC4)C(=O)NC12COC2 (racemic) [Example 9]; 7.00 to 8.00

According to the records, this molecule CC#CC1N(c2nc3c4c(ccc3s2)OCC4)C(=O)NC12CCC2 (single isomer, unassigned) [Example 20] displays pIC50 of > 8.00

According to the records, this molecule CC#CC1C[C@H](C)NC(=O)N1c1nc2c3c(ccc2s1)OCC3 (stereo in doubt) [Example 17] displays pIC50 of 7.00 to 8.00

According to the records, this molecule CC#C[C@H]1C[C@@H](C)NC(=O)N1c1nc2c3c(ccc2s1)OCC3 [Example 14] displays pIC50 of < 6.00
